# System: full-length human PLD2 (Homo sapiens (Human), UniProt O14939)
# Sequence (O14939 whole entry): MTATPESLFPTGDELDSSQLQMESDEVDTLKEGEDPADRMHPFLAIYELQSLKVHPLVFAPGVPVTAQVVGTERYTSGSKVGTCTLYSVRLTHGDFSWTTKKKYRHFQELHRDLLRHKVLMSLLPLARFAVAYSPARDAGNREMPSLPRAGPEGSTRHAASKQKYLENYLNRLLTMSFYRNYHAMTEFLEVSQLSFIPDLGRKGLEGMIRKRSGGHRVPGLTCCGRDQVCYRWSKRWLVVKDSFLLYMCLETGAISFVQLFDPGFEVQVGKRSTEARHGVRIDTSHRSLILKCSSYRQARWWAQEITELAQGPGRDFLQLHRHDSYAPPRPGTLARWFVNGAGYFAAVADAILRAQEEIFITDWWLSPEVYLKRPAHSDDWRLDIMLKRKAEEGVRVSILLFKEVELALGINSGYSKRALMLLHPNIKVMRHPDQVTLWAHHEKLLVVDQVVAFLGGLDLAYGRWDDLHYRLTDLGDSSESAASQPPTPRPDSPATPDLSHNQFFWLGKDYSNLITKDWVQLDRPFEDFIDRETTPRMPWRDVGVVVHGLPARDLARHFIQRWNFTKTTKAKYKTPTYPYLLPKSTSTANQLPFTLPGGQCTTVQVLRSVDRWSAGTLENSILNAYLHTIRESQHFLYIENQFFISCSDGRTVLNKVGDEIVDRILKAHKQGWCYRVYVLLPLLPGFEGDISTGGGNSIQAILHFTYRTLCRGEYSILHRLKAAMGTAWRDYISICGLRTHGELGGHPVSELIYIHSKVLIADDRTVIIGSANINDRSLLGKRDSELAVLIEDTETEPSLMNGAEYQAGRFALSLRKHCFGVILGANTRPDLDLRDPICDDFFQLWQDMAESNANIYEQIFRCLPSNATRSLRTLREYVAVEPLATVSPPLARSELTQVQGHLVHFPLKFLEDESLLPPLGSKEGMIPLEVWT
# Test method notes: Evaluation of human PLD2 enzyme inhibitory activity (Amplex Red / choline oxidase fluorescence)
# Format: biochemical
# Experimental conditions: full-length human PLD2 enzyme; read-out: PLD2 IC50
Listed below: pIC50 values for each entry.
// pIC50: -log10(molar conc.)

Below, each entry is followed by its recorded pIC50 result.
[
  {
    "Compound": "Cc1cc(N2CCOCC2)ccc1C1=NNC(=O)O[C@]12CC[C@@H](C[C@H](C)NC(=O)N1CCOCC1)CC2 [Example 200]",
    "Recorded value": 7.09
  },
  {
    "Compound": "C[C@@H](C[C@H]1CC[C@]2(CC1)OC(=O)NN=C2c1cc(Cl)ccc1Cl)NC(=O)c1cn2ccccc2n1 [Example 324]",
    "Recorded value": 7.66
  },
  {
    "Compound": "C[C@@H](CN1CCC2(CC1)OC(=O)NN=C2c1cc(C#N)ccc1Br)NC(=O)/C=C/C(=O)ON1C(=O)CCC1=O [Example 2-042]",
    "Recorded value": 6.42
  },
  {
    "Compound": "C[C@@H](C[C@H]1CC[C@]2(CC1)OC(=O)NN=C2c1ccc(F)cc1Cl)NC(=O)c1cc2cc(S(C)(=O)=O)ccc2[nH]1 [Example 62]",
    "Recorded value": 6.65
  },
  {
    "Compound": "C[C@@H](C[C@H]1CC[C@]2(CC1)OC(=O)NN=C2c1ccc(F)cc1Br)NC(=O)C1CC1c1ccccc1 (single isomer, unassigned) [Example 39]",
    "Recorded value": 7.62
  }
]

Kindly consider the entry below.
compound CNC(=O)C(=O)N[C@@H](C)CN1CCC2(CC1)OC(=O)NN=C2c1ccc(Cl)cc1C [Example 216] , pIC50 observed: 7.72
